As shown below, each of these sequences has a reported PBM binding z-score value.
Tested on: PXR:RXRa (NR concentration 270 nM, RXRa partner concentration 90 nM)
Test summary: PBM binding z-score (relative to random genomic background probes); higher = stronger binding; sequences stand for … in GC…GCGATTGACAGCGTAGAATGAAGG
Outcome measure: PBM binding z-score

sequence_content=ATCTCTAGGGAAAAGTTCAGTGAATCCCGAGGAT outcome_measure="PBM binding z-score" measurement=1.42
sequence_content=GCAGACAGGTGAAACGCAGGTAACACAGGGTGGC outcome_measure="PBM binding z-score" measurement=0.067
sequence_content=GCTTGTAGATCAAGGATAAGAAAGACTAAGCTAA outcome_measure="PBM binding z-score" measurement=-0.567
sequence_content=GATACAGCGTCAAGGCCAGAGTACGCGTATTGAT outcome_measure="PBM binding z-score" measurement=-0.434
sequence_content=TCTTTTAGATCAAGCAGGTTAAGAAAGCCTGAGT outcome_measure="PBM binding z-score" measurement=0.774
sequence_content=ATCGAAAGGTCGACGAGGTGAGTACACACCGTTT outcome_measure="PBM binding z-score" measurement=3.19
sequence_content=CCTAGAAGGCCAGGGTCACTCAAGCATTTCGCTT outcome_measure="PBM binding z-score" measurement=2.81
sequence_content=CCTAGTTGGTCAGGGTCACACACGCTATAGGTAC outcome_measure="PBM binding z-score" measurement=3.91
sequence_content=CCTTACGGGACAAGGTTATAGCACGGGTGGTACG outcome_measure="PBM binding z-score" measurement=0.699
sequence_content=TCGGGTAGGTTACCAATGGGGCATTCAGCTTTCT outcome_measure="PBM binding z-score" measurement=0.647
sequence_content=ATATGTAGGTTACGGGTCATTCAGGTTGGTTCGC outcome_measure="PBM binding z-score" measurement=4.78
sequence_content=CGTTAAAGTTCAACTAAGGTAACGTAAAGCACGC outcome_measure="PBM binding z-score" measurement=5.26
sequence_content=ATACCAAGGTGATCGTGAGGTCGTTAATACTAAC outcome_measure="PBM binding z-score" measurement=3.26
sequence_content=CCTACTGAGCCATTCAGAGGTCATTGATCATATG outcome_measure="PBM binding z-score" measurement=4.96
sequence_content=TCTCGGAGGACACGAAGGTCAGAGCTTTCCAGAG outcome_measure="PBM binding z-score" measurement=1.97
sequence_content=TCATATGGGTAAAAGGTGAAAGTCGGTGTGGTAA outcome_measure="PBM binding z-score" measurement=1.61
sequence_content=GCTACAGGGTCAGCTAGAGGCCAGAGTATGGAAA outcome_measure="PBM binding z-score" measurement=3.1
sequence_content=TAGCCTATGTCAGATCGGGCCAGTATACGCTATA outcome_measure="PBM binding z-score" measurement=-0.323
sequence_content=CCTGACGGGTCACTCCAGGTTATAGCATCGGAGT outcome_measure="PBM binding z-score" measurement=4.64
sequence_content=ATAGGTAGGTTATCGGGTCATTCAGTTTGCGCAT outcome_measure="PBM binding z-score" measurement=3.9
sequence_content=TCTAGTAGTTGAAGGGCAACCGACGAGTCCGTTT outcome_measure="PBM binding z-score" measurement=0.507
sequence_content=CCTACTGGGCCACGAAAGGTCATTCATTCAGTGA outcome_measure="PBM binding z-score" measurement=5.7
sequence_content=ACTCGGAGGAGAAAGGTCAGAGCTACGCCAGTGA outcome_measure="PBM binding z-score" measurement=3.09
sequence_content=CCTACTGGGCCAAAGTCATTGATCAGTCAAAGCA outcome_measure="PBM binding z-score" measurement=-0.584
sequence_content=CGTCCAAGGTCAATGCTAGGTCTGTGAAAGCATT outcome_measure="PBM binding z-score" measurement=3.74
sequence_content=CGTCAAAGTTCAAGGTAACGTGACAGAAAGCAGC outcome_measure="PBM binding z-score" measurement=4.21
sequence_content=ATCGAAAGGTCGACGAGGTGCGTATACACCGTTT outcome_measure="PBM binding z-score" measurement=3.37
sequence_content=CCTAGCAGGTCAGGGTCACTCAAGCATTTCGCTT outcome_measure="PBM binding z-score" measurement=3.91
sequence_content=AATACAGGGTCATCGTATGCCAGAGTACGCACAG outcome_measure="PBM binding z-score" measurement=4.31
sequence_content=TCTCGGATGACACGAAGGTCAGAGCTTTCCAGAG outcome_measure="PBM binding z-score" measurement=1.62
sequence_content=ATCTCTAGGTAACCAAGCTCAGTGAATGCCGAAC outcome_measure="PBM binding z-score" measurement=-0.105
sequence_content=CCGAGCAGGCCAATCTGGGTCACTCAAGGCTTGA outcome_measure="PBM binding z-score" measurement=0.937
sequence_content=TCATATAGGTAAATGCTAGGTGAATGTCCGATCT outcome_measure="PBM binding z-score" measurement=0.548
sequence_content=TCTAGCAGGCCAGAGGGTCCCTCAAGAGGTACGG outcome_measure="PBM binding z-score" measurement=-0.673
sequence_content=CCTCGGAGGAGAACAGGAGGTCAGAGCTGCCAGA outcome_measure="PBM binding z-score" measurement=1.87
sequence_content=AGCCAAAGTTCAGGACGAGGTAACGTAAAGCACG outcome_measure="PBM binding z-score" measurement=2.65
sequence_content=CGAACGATGGCATGAGTTGATAGCAAATGCCGAT outcome_measure="PBM binding z-score" measurement=-0.184
sequence_content=CCGAGTAGGTCATGGGGCATTCAGGCAACGGTGA outcome_measure="PBM binding z-score" measurement=2.15
sequence_content=TCTGCTAGGTCAACGATGGGCAGCTAATCTGCTA outcome_measure="PBM binding z-score" measurement=0.836
sequence_content=ATCTCTAGGTAACACGTTCAGTGAAAGAGAGGAC outcome_measure="PBM binding z-score" measurement=0.0713
sequence_content=TCTAGTTGGTCAAAGGTCACACGCTCGAAATGCG outcome_measure="PBM binding z-score" measurement=6
sequence_content=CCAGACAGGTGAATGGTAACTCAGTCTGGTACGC outcome_measure="PBM binding z-score" measurement=-0.4
sequence_content=AGAACGAGGGCACGCTGAGTCGATAGCAGAGTAG outcome_measure="PBM binding z-score" measurement=0.266
sequence_content=CAAACTAGGTCAAGGTAAAAGTCGGTTTGTGCCA outcome_measure="PBM binding z-score" measurement=1.54
sequence_content=ATCTCTAGGTAACAAGCTCAGTGAAAGAGAGGAC outcome_measure="PBM binding z-score" measurement=-0.0529
sequence_content=TCTAGTTGGTCAAAGGTCATACACTCGAAATGCG outcome_measure="PBM binding z-score" measurement=6.04
sequence_content=GTAACAAGGTGAATAGGTCGTTGATGAGTAGGCG outcome_measure="PBM binding z-score" measurement=1.02
sequence_content=CAAACTAGGTCGCCGGAAGGTCAAAGTCCGCATG outcome_measure="PBM binding z-score" measurement=4.72
sequence_content=CGTCCAAGGTCAAAAGTCAGTGAAGAGATGACGG outcome_measure="PBM binding z-score" measurement=3.92
sequence_content=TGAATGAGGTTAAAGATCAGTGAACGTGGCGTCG outcome_measure="PBM binding z-score" measurement=2.01
sequence_content=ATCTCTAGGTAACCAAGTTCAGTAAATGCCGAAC outcome_measure="PBM binding z-score" measurement=2.05

---

Tested on: PPARg:RXRa (NR concentration 180 nM, RXRa partner concentration 90 nM)
Test summary: PBM binding z-score (relative to random genomic background probes); higher = stronger binding; sequences stand for … in GC…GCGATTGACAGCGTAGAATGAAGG
Quick rule for you: PBM binding z-score at 1 or higher means fulfilled, lower means not fulfilled.

sequence_content=CACGAAAGGTCGTGCTCAGGTGAGTATACCAAAC label_value=fulfilled
sequence_content=CGTCCTAGGTCAATGCTAGGTCAGTGAAAGCATT label_value=fulfilled
sequence_content=ATCTCTAAGTAAAGATAGTTCAGTGAATGCAAAT label_value="not fulfilled"
sequence_content=ATCGAAAGGTCTTGAGGTGAGTATACAGAAAGGC label_value=fulfilled
sequence_content=TTACCAAGGTGAAGGTCGTTGTTCCCTCTGTAGA label_value=fulfilled
sequence_content=AGAATGTGGTTATACGTAGATCAGGGAAGAAAGT label_value="not fulfilled"
sequence_content=ACTAGTAGTTGACTTAGGGCAACCGATACGACGC label_value="not fulfilled"
sequence_content=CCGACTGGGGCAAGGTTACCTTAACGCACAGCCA label_value=fulfilled
sequence_content=TCATTTAGGTAATACAGGTGAAAGTCGGCATCTA label_value="not fulfilled"
sequence_content=CTACGAAGGTGAACAAGGTCGTTGATTACTATTC label_value="not fulfilled"
sequence_content=TATCCTAGGTCATTGGGCCAGTATAGTACGCATC label_value=fulfilled
sequence_content=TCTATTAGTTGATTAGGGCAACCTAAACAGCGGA label_value="not fulfilled"
sequence_content=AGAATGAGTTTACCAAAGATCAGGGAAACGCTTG label_value="not fulfilled"
sequence_content=GCTTATAGGTAATACAAGGTGAAAGTCCGATTGT label_value="not fulfilled"
sequence_content=ACTGGTTGGTCAGCTGAGGTCACACACAATTCGG label_value=fulfilled
sequence_content=TCTTGTAGAGCAATAGAGGTTAAGAAAGTGCGCT label_value="not fulfilled"
sequence_content=TCTTGTAGATCAACAGGAGGTTAAAAAAGATCGA label_value="not fulfilled"
sequence_content=GTACCAAGGTGCATAGGTCGTTGATGAGTAGGCG label_value=fulfilled
sequence_content=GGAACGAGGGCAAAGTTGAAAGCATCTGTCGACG label_value=fulfilled
sequence_content=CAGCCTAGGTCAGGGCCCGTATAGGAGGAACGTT label_value="not fulfilled"
sequence_content=CCTATTAGTTGACCATAACGGCAACCGAAGCTCG label_value="not fulfilled"
sequence_content=CCTAGTTGGTCACGAGGTCACACACCGGATATGA label_value=fulfilled
sequence_content=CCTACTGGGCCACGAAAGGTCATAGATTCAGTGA label_value=fulfilled
sequence_content=CCAGACAGGTGAAAGGTAACTCGGTCTGGTACGC label_value=fulfilled
sequence_content=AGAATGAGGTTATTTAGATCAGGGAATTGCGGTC label_value=fulfilled
sequence_content=AATACAGAGTCATCGTAGGCCAGAGTACGCACAG label_value="not fulfilled"
